- TARGET_OF_ASSAY: T1, c-Src SH3 domain (human, UniProt P12931-1 81-142)
- T1 construct: human c-Src, SH3 domain, residues 81-142; Cloned into pET21a through NdeI and XhoI; source: E. coli Rosetta 2(DE3)pLysS, purified (anion exchange, IMAC, SEC)
- METHOD: SPR; same runs as a1 (biotinylated VSL12 on a streptavidin chip, 25°C, HBS-EP); equilibrium responses against analyte concentration, steady state model
- PROTOCOL_CONDITIONS: both partners purified
Ends that are not written are not given here.
MEASURED_ATTRIBUTE: Kd (µM)
Report as a plain number; the unit µM is understood.

Input line: # input binder: VSLARRPLPPLP (also: biotin (site not given here), Biotinylated for immobilisation in SPR; source: synthetic peptide (University of Pittsburgh Peptide Synthesis Core)) [VSL12 peptide] ; wanted: its Kd
Output line: 4
